Where do the numbers come from? From patent US7074789B2.

A short record of IC50 observed with Tek (Homo sapiens, UniProt Q02763) follows.
Sequence (Q02763 23-1124, species assumed): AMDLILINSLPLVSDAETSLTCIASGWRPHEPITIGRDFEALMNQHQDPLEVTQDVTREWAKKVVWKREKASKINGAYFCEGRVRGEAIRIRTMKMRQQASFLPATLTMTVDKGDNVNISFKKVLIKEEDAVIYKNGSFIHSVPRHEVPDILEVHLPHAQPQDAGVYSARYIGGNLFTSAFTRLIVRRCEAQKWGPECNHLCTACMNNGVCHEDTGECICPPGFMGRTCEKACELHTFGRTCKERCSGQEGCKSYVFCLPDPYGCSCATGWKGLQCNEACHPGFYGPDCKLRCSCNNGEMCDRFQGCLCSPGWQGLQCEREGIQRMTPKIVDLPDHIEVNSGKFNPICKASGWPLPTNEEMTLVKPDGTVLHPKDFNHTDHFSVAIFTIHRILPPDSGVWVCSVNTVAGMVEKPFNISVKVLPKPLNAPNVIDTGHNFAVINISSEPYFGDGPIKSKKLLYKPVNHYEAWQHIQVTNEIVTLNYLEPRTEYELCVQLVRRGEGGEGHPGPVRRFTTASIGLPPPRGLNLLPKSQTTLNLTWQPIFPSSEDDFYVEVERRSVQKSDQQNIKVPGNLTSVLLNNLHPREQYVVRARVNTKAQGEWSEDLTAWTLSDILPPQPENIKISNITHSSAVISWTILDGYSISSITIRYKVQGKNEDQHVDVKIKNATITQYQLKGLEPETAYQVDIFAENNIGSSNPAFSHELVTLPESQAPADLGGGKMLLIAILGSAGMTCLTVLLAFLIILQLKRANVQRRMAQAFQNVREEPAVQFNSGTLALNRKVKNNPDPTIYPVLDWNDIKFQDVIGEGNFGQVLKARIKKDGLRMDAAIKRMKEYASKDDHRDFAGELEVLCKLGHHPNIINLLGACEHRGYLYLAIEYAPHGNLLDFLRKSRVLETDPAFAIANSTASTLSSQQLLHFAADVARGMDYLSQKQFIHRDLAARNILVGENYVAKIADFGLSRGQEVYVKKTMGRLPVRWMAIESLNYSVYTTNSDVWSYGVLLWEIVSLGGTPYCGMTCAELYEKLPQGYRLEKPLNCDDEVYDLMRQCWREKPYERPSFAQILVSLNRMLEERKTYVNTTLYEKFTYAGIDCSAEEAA

Below, 5 compounds whose answers are already recorded.
COc1ccc(Nc2ncnc(Nc3ccc(OCc4ccccc4)cc3)n2)cc1OC ... 5.59 to 8.15 µM
COc1cc(Nc2ncnc(Nc3ccccc3C)n2)cc(OC)c1OC ... > 12.2 µM
COc1cc(Nc2ncnc(-n3c(NCc4ccccn4)nc4ccccc43)n2)cc(OC)c1OCCn1ccnn1 ... > 7.96 µM
Nc1nc2ccccc2n1-c1ncnc(Nc2ccccc2)n1 ... 7.91 to 11.5 µM
COc1cc(Nc2ncnc(-n3c(NCc4nc5ccccc5[nH]4)nc4ccccc43)n2)cc(OC)c1OC ... > 8.6 µM

Value sought: IC50, system Tek (Homo sapiens, UniProt Q02763), item COc1cc(Nc2ncnc(-n3c(Nc4ccc(F)cc4)nc4ccccc43)n2)cc(OC)c1OC . Result: > 9.23 µM

Value sought: IC50, system Tek (Homo sapiens, UniProt Q02763), item COc1cc(Nc2ncnc(N[C@H](CO)c3ccccc3)n2)cc(OC)c1OC . Result: > 11.3 µM
